Sourced from patent US20070270484A1

# System: S. pneum AB 14 (erm)
# method.description: microbe, parasite or virus in culture
# Format: cell-based, streptococcus pneumoniae
# stated.conditions: agar dilution, 18-24 hours, 35±2° C., 5% CO2; erm: ribosomal modification (mutation) erm genes
# Procedure: Drug dilutions and the agar plates are prepared by NCCLS method. Inoculum is prepared by direct colony suspensions in normal saline and adjusted to 0.5 McFarland turbidity and subsequently diluted as per NCCLS guidelines in order to obtain 10^4 CFU/spot. CFU/ml of a few randomly selected cultures is performed. The cultures are replicated on the agar plates using replicator (Denley's multipoint). […] Minimum inhibitory concentrations (MIC) are determined after 18-24 hours. […]
endpoint: Minimum Inhibitory Concentrations, S. pneum AB 14 (erm) (µg/mL)
Just the number please, in µg/mL, no unit attached.

CCC1OC(=O)C(C)C(OC(=O)Cc2ccc(F)cc2F)C(C)C(OC2OC(C)CC(N(C)Cc3ccccc3)C2O)C(C)(OC)CC(C)C(=O)C(C)C(O)C1(C)O (stereo not drawn) | 16

Supply Minimum Inhibitory Concentrations, S. pneum AB 14 (erm) measured with S. pneum AB 14 (erm) for C#CCN(C)C1CC(C)OC(OC2C(C)C(OC(=O)Cc3ccc(F)cc3)C(C)C(=O)OC(CC)C(C)(O)C(O)C(C)C(=O)C(C)CC2(C)OC)C1O (stereo not drawn) . 16

----------
Overview of recorded Minimum Inhibitory Concentrations, S. pneum AB 14 (erm) for various compounds
# Tested on: S. pneum AB 14 (erm)
# method.description: microbe, parasite or virus in culture
# Format: cell-based, streptococcus pneumoniae
# stated.conditions: agar dilution, 18-24 hours, 35±2° C., 5% CO2; erm: ribosomal modification (mutation) erm genes

Examples with answers:
CCC1OC(=O)C(C)C(OC(=O)Cc2ccc(F)cc2)C(C)C(OC2OC(C)CC(N(C)Cc3ccc([N+](=O)[O-])cc3)C2O)C(C)(OC)CC(C)C(=O)C(C)C(O)C1(C)O (stereo not shown) [Compound No. 24] | 8 µg/mL
CCC1OC(=O)C(C)C(OC(=O)Cc2ccccc2F)C(C)C(OC2OC(C)CC(N(C)Cc3ccc(F)cc3)C2O)C(C)(OC)CC(C)C(=O)C(C)C(O)C1(C)O (stereo not shown) [Compound No. 5] | >8 µg/mL
CCC1OC(=O)C(C)C(OC(=O)Cc2ccc3ccccc3c2)C(C)C(OC2OC(C)CC(N(C)Cc3ccccc3)C2O)C(C)(OC)CC(C)C(=O)C(C)C(O)C1(C)O (stereo not shown) [Compound No. 73] | >16 µg/mL

The record that follows has no Minimum Inhibitory Concentrations, S. pneum AB 14 (erm) shown yet.
Read off the recorded Minimum Inhibitory Concentrations, S. pneum AB 14 (erm) for CCC1OC(=O)C(C)C(OC(=O)Cc2ccc(F)cc2)C(C)C(OC2OC(C)CC(N(C)Cc3cccc(O)c3)C2O)C(C)(OC)CC(C)C(=O)C(C)C(O)C1(C)O (stereo not shown) [Compound No. 17] >16 µg/mL

----------
Overview of recorded Minimum Inhibitory Concentrations, MoraXella MI for various molecules
# Test system: MoraXella MI
# method.description: MIC, agar incorporation method (NCCLS agar dilution method)
# Assay type: cell-based
# stated.conditions: 18-24 hours, 35±2° C.
Just the number please, in µg/mL, no unit attached.

C#CCN(C)C1CC(C)OC(OC2C(C)C(OC(=O)Cc3ccc(F)cc3)C(C)C(=O)OC(CC)C(C)(O)C(O)C(C)C(=O)C(C)CC2(C)OC)C1O (stereo not shown) | 16
CCC1OC(=O)C(C)C(OC(=O)Cc2ccc(F)cc2)C(C)C(OC2OC(C)CC(N(C)Cc3ccc([N+](=O)[O-])cc3)C2O)C(C)(OC)CC(C)C(=O)C(C)C(O)C1(C)O (stereo not shown) | 2
CC[C@H]1OC(=O)[C@H](C)[C@@H](O[C@H]2C[C@@](C)(OC)[C@@H](O)[C@H](C)O2)[C@H](C)[C@@H](O[C@@H]2O[C@H](C)C[C@H](N(C)C)[C@H]2O)[C@](C)(O)C[C@@H](C)C(=O)[C@H](C)[C@@H](O)[C@]1(C)O [E, erythromycin A, reference compound] | 0.06
CCC1OC(=O)C(C)C(OC(=O)Cc2ccc3ccccc3c2)C(C)C(OC2OC(C)CC(N(C)Cc3ccccc3)C2O)C(C)(OC)CC(C)C(=O)C(C)C(O)C1(C)O (stereo not shown) | 16

Read off the recorded Minimum Inhibitory Concentrations, MoraXella MI for CCC1OC(=O)C(C)C(OC(=O)Cc2ccc(F)cc2)C(C)C(OC2OC(C)CC(N(C)Cc3cccc(O)c3)C2O)C(C)(OC)CC(C)C(=O)C(C)C(O)C1(C)O (stereo not shown) 8

----------
# Tested on: S. pneum AB 29 (erm)
# method.description: microbe, parasite or virus in culture
# Format: cell-based, streptococcus pneumoniae
# stated.conditions: agar dilution, 18-24 hours, 35±2° C., 5% CO2; erm: ribosomal modification (mutation) erm genes
# Procedure: Drug dilutions and the agar plates are prepared by NCCLS method. Inoculum is prepared by direct colony suspensions in normal saline and adjusted to 0.5 McFarland turbidity and subsequently diluted as per NCCLS guidelines in order to obtain 10^4 CFU/spot. CFU/ml of a few randomly selected cultures is performed. The cultures are replicated on the agar plates using replicator (Denley's multipoint). […] Minimum inhibitory concentrations (MIC) are determined after 18-24 hours. […]
endpoint: Minimum Inhibitory Concentrations, S. pneum AB 29 (erm)

Examples with answers:
C#CCN(C)C1CC(C)OC(OC2C(C)C(OC(=O)Cc3ccc(F)cc3)C(C)C(=O)OC(CC)C(C)(O)C(O)C(C)C(=O)C(C)CC2(C)OC)C1O (stereo not drawn) | 1 µg/mL
CCC1OC(=O)C(C)C(OC(=O)Cc2ccc(F)cc2)C(C)C(OC2OC(C)CC(N(C)Cc3cccc(O)c3)C2O)C(C)(OC)CC(C)C(=O)C(C)C(O)C1(C)O (stereo not drawn) | <0.5 µg/mL
CCC1OC(=O)C(C)C(OC(=O)Cc2ccc(F)cc2F)C(C)C(OC2OC(C)CC(N(C)Cc3ccccc3)C2O)C(C)(OC)CC(C)C(=O)C(C)C(O)C1(C)O (stereo not drawn) | >16 µg/mL
CCC1OC(=O)C(C)C(OC(=O)Cc2ccc(F)cc2)C(C)C(OC2OC(C)CC(N(C)Cc3ccc([N+](=O)[O-])cc3)C2O)C(C)(OC)CC(C)C(=O)C(C)C(O)C1(C)O (stereo not drawn) | >16 µg/mL
CCC1OC(=O)C(C)C(OC(=O)Cc2ccc3ccccc3c2)C(C)C(OC2OC(C)CC(N(C)Cc3ccccc3)C2O)C(C)(OC)CC(C)C(=O)C(C)C(O)C1(C)O (stereo not drawn) | >16 µg/mL

The record that follows has no Minimum Inhibitory Concentrations, S. pneum AB 29 (erm) shown yet.
Supply Minimum Inhibitory Concentrations, S. pneum AB 29 (erm) measured with S. pneum AB 29 (erm) for CC[C@H]1OC(=O)[C@H](C)[C@@H](O[C@H]2C[C@@](C)(OC)[C@@H](O)[C@H](C)O2)[C@H](C)[C@@H](O[C@@H]2O[C@H](C)C[C@H](N(C)C)[C@H]2O)[C@](C)(O)C[C@@H](C)C(=O)[C@H](C)[C@@H](O)[C@]1(C)O [E, erythromycin A, reference compound] . >16 µg/mL

----------
# Test system: S. pneum 1251 (mef)
# method.description: MIC, agar incorporation method (NCCLS agar dilution method)
# Type: cell-based, streptococcus pneumoniae
# stated.conditions: 18-24 hours, 35±2° C., 5% CO2, mef: efflux pump mef genes
endpoint: Minimum Inhibitory Concentrations, S. pneum 1251 (mef) (µg/mL)
Just the number please, in µg/mL, no unit attached.

Examples with answers:
CCC1OC(=O)C(C)C(OC(=O)Cc2ccc(F)cc2)C(C)C(OC2OC(C)CC(N(C)Cc3cccc(O)c3)C2O)C(C)(OC)CC(C)C(=O)C(C)C(O)C1(C)O (stereo not shown) [Compound No. 17] | 1
CC[C@H]1OC(=O)[C@H](C)[C@@H](O[C@H]2C[C@@](C)(OC)[C@@H](O)[C@H](C)O2)[C@H](C)[C@@H](O[C@@H]2O[C@H](C)C[C@H](N(C)C)[C@H]2O)[C@](C)(O)C[C@@H](C)C(=O)[C@H](C)[C@@H](O)[C@]1(C)O [E, erythromycin A, reference compound] | 8
CCC1OC(=O)C(C)C(OC(=O)Cc2ccc(F)cc2)C(C)C(OC2OC(C)CC(N(C)Cc3ccc([N+](=O)[O-])cc3)C2O)C(C)(OC)CC(C)C(=O)C(C)C(O)C1(C)O (stereo not shown) [Compound No. 24] | 1
C#CCN(C)C1CC(C)OC(OC2C(C)C(OC(=O)Cc3ccc(F)cc3)C(C)C(=O)OC(CC)C(C)(O)C(O)C(C)C(=O)C(C)CC2(C)OC)C1O (stereo not shown) [Compound No. 18] | 1

Supply Minimum Inhibitory Concentrations, S. pneum 1251 (mef) measured with S. pneum 1251 (mef) for CCC1OC(=O)C(C)C(OC(=O)Cc2ccccc2F)C(C)C(OC2OC(C)CC(N(C)Cc3ccc(F)cc3)C2O)C(C)(OC)CC(C)C(=O)C(C)C(O)C1(C)O (stereo not shown) [Compound No. 5] . 2

Supply Minimum Inhibitory Concentrations, S. pneum 1251 (mef) measured with S. pneum 1251 (mef) for CCC1OC(=O)C(C)C(OC(=O)Cc2ccc3ccccc3c2)C(C)C(OC2OC(C)CC(N(C)Cc3ccccc3)C2O)C(C)(OC)CC(C)C(=O)C(C)C(O)C1(C)O (stereo not shown) [Compound No. 73] . 2
